biological target: T1, Peptide B (human PAR-2), C-terminal biotinylated (Human, not fully specified); assay: SPR, peptide immobilized
T1 construct: also called Peptide B C-Term
T1 peptide: SLIGKVDGTSHVTGGGGGS-biotin
Where no end group is shown, it is not given here.

{"binder": "H4H585P (antibody, human IgG4, V domains shown, also called H1H585P variable regions) VH: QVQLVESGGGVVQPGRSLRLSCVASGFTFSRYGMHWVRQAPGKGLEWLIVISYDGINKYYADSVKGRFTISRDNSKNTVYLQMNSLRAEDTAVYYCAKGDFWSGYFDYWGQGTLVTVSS VL: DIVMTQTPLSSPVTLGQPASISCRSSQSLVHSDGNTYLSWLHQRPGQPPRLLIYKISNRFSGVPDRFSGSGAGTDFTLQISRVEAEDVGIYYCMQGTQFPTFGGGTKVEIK", "units text": "nM", "Kd": 0.376}
{"binder": "H4H581P (antibody, human IgG4, V domains shown, also called mAb H4H581P; H1H581P variable regions) VH: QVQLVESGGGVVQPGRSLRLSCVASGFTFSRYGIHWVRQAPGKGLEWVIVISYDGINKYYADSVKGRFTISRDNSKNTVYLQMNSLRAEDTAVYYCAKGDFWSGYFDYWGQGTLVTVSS VL: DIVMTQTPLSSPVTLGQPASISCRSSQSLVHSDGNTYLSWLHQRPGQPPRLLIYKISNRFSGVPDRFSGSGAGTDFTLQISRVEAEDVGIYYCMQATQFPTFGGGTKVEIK", "units text": "nM", "Kd": 0.346}
{"binder": "H2M618N (antibody, V domains shown, chimeric: human variable, mouse constant domains) VH: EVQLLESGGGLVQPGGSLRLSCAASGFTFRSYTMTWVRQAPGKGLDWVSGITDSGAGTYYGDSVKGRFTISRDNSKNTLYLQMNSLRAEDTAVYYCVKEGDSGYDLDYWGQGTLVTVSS VL: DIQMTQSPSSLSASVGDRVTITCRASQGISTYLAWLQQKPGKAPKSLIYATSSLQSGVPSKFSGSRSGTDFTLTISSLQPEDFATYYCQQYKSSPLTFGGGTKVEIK", "units text": "nM", "Kd": 2.32}
